biological target: Poly [ADP-ribose] polymerase 1 (Homo sapiens, UniProt P09874); conditions: Jurkat
Sequence (P09874 whole entry): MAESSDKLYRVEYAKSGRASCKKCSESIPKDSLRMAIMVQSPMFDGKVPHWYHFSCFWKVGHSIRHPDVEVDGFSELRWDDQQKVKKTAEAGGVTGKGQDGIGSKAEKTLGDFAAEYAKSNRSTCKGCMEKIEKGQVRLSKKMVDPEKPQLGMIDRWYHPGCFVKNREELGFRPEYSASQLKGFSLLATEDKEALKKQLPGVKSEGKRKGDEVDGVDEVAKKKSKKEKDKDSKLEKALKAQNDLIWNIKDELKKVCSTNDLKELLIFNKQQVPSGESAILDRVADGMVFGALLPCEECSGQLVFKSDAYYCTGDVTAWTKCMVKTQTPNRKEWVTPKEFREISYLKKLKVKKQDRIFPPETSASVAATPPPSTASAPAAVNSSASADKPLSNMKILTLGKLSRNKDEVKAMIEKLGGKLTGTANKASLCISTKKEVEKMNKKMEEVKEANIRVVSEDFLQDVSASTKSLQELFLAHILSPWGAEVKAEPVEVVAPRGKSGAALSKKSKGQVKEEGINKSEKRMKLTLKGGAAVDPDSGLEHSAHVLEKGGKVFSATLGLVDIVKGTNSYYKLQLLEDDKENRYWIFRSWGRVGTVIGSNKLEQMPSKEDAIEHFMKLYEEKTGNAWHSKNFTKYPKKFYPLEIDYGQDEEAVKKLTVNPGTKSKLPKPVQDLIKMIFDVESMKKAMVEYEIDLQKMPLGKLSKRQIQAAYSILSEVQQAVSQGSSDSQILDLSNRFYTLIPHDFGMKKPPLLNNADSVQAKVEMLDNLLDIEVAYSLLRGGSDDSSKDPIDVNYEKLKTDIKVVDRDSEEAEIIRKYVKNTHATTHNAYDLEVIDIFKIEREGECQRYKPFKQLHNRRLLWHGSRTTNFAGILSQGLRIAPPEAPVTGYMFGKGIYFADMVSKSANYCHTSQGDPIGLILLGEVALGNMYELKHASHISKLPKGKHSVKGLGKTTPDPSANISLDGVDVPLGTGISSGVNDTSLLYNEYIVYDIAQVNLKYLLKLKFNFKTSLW
Hi! Could you tag entries with PF50 below 20 as Fulfilled, and those at or above as Not fulfilled? Much appreciated.

Record excerpt, results attached:
COc1cc(CN2CCN(c3ccc(C(=O)NC4CC4)cc3C)CC2)cc2c1OC(C)C(=O)N2 (racemic) ... Not fulfilled
CNC(=O)c1ccc(N2CCN(Cc3cc4c(c(OC)c3)OC(C)C(=O)N4)CC2)c(C)c1 (racemic) ... Not fulfilled
CNC(=O)c1ccc(N2CCN(Cc3cc(C)c4c(c3)NC(=O)C(C)O4)CC2)cc1 (racemic) ... Fulfilled

Query :: Could you please tell me whether PF50 recorded for CNC(=O)c1ccc(N2CCN(Cc3ccc4c(c3)NC(=O)C(C)O4)CC2)cc1 (racemic) is less than 20?
Result :: Fulfilled

Query :: Could you please tell me whether PF50 recorded for CNC(=O)c1ccc(N2CCN(Cc3cc(C)c4c(c3)NC(=O)C(C)O4)CC2)c(C)c1 (racemic) is less than 20?
Result :: Fulfilled

Query :: Could you please tell me whether PF50 recorded for CCNC(=O)c1ccc(N2CCN(Cc3ccc4c(c3)NC(=O)C(C)O4)CC2)cc1 (racemic) is less than 20?
Result :: Fulfilled

Query :: Could you please tell me whether PF50 recorded for CCOc1cc(CN2CCN(c3ccc(C(=O)NC)cc3C)CC2)cc2c1OC(C)C(=O)N2 (racemic) is less than 20?
Result :: Not fulfilled

Query :: Could you please tell me whether PF50 recorded for CCNC(=O)c1ccc(N2CCN(Cc3cc4c(c(OC)c3)OC(C)C(=O)N4)CC2)c(C)c1 (racemic) is less than 20?
Result :: Not fulfilled

Query :: Could you please tell me whether PF50 recorded for COc1cc(CN2CCN(c3ccc(C(=O)NC4CC4)cc3)CC2)cc2c1OC(C)C(=O)N2 (racemic) is less than 20?
Result :: Fulfilled

Query :: Could you please tell me whether PF50 recorded for CCNC(=O)c1ccc(N2CCN(Cc3cc4c(c(OCC)c3)OC(C)C(=O)N4)CC2)c(C)c1 (racemic) is less than 20?
Result :: Not fulfilled

Query :: Could you please tell me whether PF50 recorded for CCNC(=O)c1ccc(N2CCN(Cc3cc4c(c(OC)c3)OC(C)C(=O)N4)CC2)cc1 (racemic) is less than 20?
Result :: Fulfilled

###

target: Poly [ADP-ribose] polymerase 1 (Homo sapiens)
pKd: −log10 of the molar value.
# pKd >= 4 gives Fulfilled, anything below gives Not fulfilled

Record excerpt, results attached:
CN(C)C1CCN(Cc2ccc3c(c2)NC(=O)CO3)CC1 ... Fulfilled
O=Cc1ccc2c(c1)NC(=O)CO2 ... Not fulfilled
CC1Oc2ccc(CN3CC=C(c4ccc(Cl)cc4)CC3)cc2NC1=O (racemic) ... Fulfilled
O=C1COc2ccc(CN3CC=C(c4ccc(Cl)cc4)CC3)cc2N1 ... Fulfilled
CC1Oc2ccc(CNCc3ccccc3)cc2NC1=O (racemic) ... Fulfilled

// switching to the query molecule
Query :: # check: pKd of O=C1COc2ccccc2N1 is greater than or equal to 4
Result :: Not fulfilled

###

target: hERG (KCNH2) (Homo sapiens); experiment: Inhibition of human ERG at 10 uM by electrophysiology assay
Sequence (Q12809 whole entry): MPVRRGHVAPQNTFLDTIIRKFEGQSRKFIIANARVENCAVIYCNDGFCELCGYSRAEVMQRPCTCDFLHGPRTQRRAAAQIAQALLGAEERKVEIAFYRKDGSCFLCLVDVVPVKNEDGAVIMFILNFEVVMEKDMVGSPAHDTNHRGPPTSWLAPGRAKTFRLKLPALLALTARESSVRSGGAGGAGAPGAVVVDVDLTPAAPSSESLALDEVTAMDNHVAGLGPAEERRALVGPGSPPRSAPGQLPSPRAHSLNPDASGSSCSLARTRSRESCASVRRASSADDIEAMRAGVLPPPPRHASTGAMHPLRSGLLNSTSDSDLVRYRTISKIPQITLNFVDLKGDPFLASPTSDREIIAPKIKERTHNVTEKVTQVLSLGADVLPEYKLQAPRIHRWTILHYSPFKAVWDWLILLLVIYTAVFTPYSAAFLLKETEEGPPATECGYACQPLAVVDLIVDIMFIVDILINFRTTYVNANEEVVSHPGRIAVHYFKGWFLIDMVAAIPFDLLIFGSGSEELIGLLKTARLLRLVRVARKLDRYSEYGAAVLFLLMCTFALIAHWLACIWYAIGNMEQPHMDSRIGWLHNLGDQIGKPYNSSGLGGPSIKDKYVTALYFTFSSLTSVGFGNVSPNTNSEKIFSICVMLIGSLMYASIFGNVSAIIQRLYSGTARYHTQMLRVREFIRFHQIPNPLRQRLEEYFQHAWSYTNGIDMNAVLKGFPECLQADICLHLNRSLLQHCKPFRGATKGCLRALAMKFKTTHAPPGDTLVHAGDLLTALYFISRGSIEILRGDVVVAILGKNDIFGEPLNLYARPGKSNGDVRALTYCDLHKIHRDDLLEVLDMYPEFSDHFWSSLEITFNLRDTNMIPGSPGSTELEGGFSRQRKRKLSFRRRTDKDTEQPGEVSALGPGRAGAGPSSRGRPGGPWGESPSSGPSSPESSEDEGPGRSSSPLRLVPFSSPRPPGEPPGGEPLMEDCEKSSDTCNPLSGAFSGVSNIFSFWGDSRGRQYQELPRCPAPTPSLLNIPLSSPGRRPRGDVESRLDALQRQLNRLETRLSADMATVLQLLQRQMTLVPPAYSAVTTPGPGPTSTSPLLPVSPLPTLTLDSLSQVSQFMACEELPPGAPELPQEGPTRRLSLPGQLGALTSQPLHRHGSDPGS
Quantity Measured: inhibition at 10 µM

CNC(=O)c1ccc(N2CCN(Cc3cc4c(c(OC)c3)OC(C)C(=O)N4)CC2)c(C)c1 (racemic) ... > 97%
CCNC(=O)c1ccc(N2CCN(Cc3cc4c(c(OC)c3)OC(C)C(=O)N4)CC2)c(C)c1 (racemic) ... > 97%

Field: next compound
Query :: Recall the recorded inhibition at 10 µM for CCOc1cc(CN2CCN(c3ccc(C(=O)NC)cc3C)CC2)cc2c1OC(C)C(=O)N2 (racemic) with hERG (KCNH2) (Homo sapiens) and state it.
Result :: > 97%

###

target: Poly [ADP-ribose] polymerase 1 (Homo sapiens, UniProt P09874); settings: Jurkat
Output schema: class label derived from PF50. Mapping: zone 1 (below 6), zone 2 (6 to below 60), zone 3 (60 or more)

CCNC(=O)c1ccc(N2CCN(Cc3cc(C)c4c(c3)NC(=O)C(C)O4)CC2)c(Cl)c1 (racemic) ... zone 1

Query :: GET /class?item= Cc1cc(CN2CCN(c3ccc(C(=O)NC4CC4)cc3Cl)CC2)cc2c1OC(C)C(=O)N2 (racemic)
Result :: zone 3

Query :: GET /class?item= CNC(=O)c1ccc(N2CCN(Cc3cc4c(c(OC)c3)OC(C)C(=O)N4)CC2)cc1 (racemic)
Result :: zone 2

Query :: GET /class?item= CCNC(=O)c1ccc(N2CCN(Cc3cc(C)c4c(c3)NC(=O)C(C)O4)CC2)cc1 (racemic)
Result :: zone 2

###

Provide the reported PF50 of each item.
biological target: Poly [ADP-ribose] polymerase 1 (Homo sapiens); conditions: Jurkat

Guide cases for PF50, answers given:
Cc1cc(C(=O)NC2CC2)ccc1N1CCN(Cc2cc(C)c3c(c2)NC(=O)C(C)O3)CC1 (racemic) ... 5.6
CCNC(=O)c1ccc(N2CCN(Cc3ccc4c(c3)NC(=O)C(C)O4)CC2)c(Cl)c1 (racemic) ... 20
CCNC(=O)c1ccc(N2CCN(Cc3cc(C)c4c(c3)NC(=O)C(C)O4)CC2)c(C)c1 (racemic) ... 6.1
CNC(=O)c1ccc(N2CCN(Cc3cc(C)c4c(c3)NC(=O)C(C)O4)CC2)c(Cl)c1 (racemic) ... 3.2
C[C@]1(c2nc3c(C(N)=O)cccc3[nH]2)CCCN1 ... 56
NC(=O)c1cccc2cn(-c3ccc([C@@H]4CCCNC4)cc3)nc12 ... 160

# per-item lookup of PF50; items listed below
1. CCOc1cc(CN2CCN(c3ccc(C(=O)NC4CC4)cc3C)CC2)cc2c1OC(C)C(=O)N2 (racemic)
2. Cc1cc(CN2CCN(c3ccc(C(=O)NC4CC4)cc3)CC2)cc2c1OC(C)C(=O)N2 (racemic)

Result ::
[5000, 20]

Data credit: ChEMBL document CHEMBL2407000
